Assay: Aqueous solubility of co-crystals (saturated solutions in water, liquid chromatography)
Format: physicochemical
Details: thermodynamic from solid, time point not stated, read-out: solubility for the Free Base (comparison)
Experimental: The aqueous solubility of the co-crystals is determined by creating saturated solutions containing individual co-crystals in water. The saturated solutions are shaken for 24 hours at room temperature. Samples are taken at two timepoints (2 hours and 24 hours) and are filtered and diluted (acetonitrile/water 1:1) before measurement with liquid chromatography.
reported.property: solubility (µg/mL)

1) CN1C(=O)c2c(nn(Cc3ccc(-c4cccc(F)n4)cc3)c2Nc2ccccc2)N2C1=N[C@@H]1CCC[C@@H]12 [Free Base] ... 1
